src = ChEMBL document CHEMBL1125987

# experimental_target: 5-hydroxytryptamine receptor 1A (Rattus norvegicus)
# experimental_details: Inhibition of [3H]- 8-OH-DPAT binding to 5-HT1A-receptor from rat cerebral cortex membranes
# Format: cell membranes
# settings: Membrane
Rule: Hill coefficient below 1 gives MET. Equal to or above 1 gives NOT MET.

# example entries with known answers
CCCN(CCC)[C@@H]1CCc2cccc(OS(=O)(=O)C(F)(F)F)c2C1 | MET
CCCN(CCC)[C@@H]1CCc2ccccc2C1 | MET

Record `CCCN(CCC)[C@H]1CCc2cccc(OC)c2C1` : is its Hill coefficient strictly below 1? MET

`CCCN(CCC)[C@@H]1CCc2cccc(C)c2C1` ? NOT MET

###

# experimental_target: 5-hydroxytryptamine receptor 1A (Rattus norvegicus)
# Sequence (whole entry): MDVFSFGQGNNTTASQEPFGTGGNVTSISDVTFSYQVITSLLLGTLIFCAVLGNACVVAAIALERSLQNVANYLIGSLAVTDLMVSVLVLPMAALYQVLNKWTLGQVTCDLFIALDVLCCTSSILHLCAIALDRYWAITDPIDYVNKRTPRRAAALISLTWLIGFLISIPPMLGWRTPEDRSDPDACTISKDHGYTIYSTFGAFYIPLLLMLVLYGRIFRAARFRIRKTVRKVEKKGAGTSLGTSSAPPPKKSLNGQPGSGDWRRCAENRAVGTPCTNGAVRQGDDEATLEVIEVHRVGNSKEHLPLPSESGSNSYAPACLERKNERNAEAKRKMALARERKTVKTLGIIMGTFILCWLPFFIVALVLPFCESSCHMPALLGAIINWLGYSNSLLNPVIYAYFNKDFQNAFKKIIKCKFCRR
# experimental_details: Inhibition of [3H]- 8-OH-DPAT binding to 5-HT1A-receptor from rat cerebral cortex membranes
# Format: cell membranes
# settings: Membrane
Answer no if Hill coefficient is under 0.9, and yes if it is 0.9 or more.

CCCN(CCC)[C@@H]1CCc2cccc(O)c2C1 | yes
CCCN(CCC)[C@H]1CCc2cccc(C)c2C1 | yes
CCCN(CCC)[C@H]1CCc2cccc(C(C)=O)c2C1 | no
CCCN(CCC)[C@H]1CCc2cccc(OS(=O)(=O)C(F)(F)F)c2C1 | no
CCCN(CCC)[C@@H]1CCc2cccc(-c3ccccc3)c2C1 | yes

Record `CCCN(CCC)[C@@H]1CCc2cccc(OC)c2C1` ; criterion: Hill coefficient no lower than 0.9. Met? yes

`CCCN(CCC)[C@H]1CCc2cccc(O)c2C1` ? no

`CCCN(CCC)[C@H]1CCc2ccccc2C1` ? no

`CCCN(CCC)[C@H]1CCc2cccc(-c3ccccc3)c2C1` ? yes
